The origin of these recorded values is patent US20210292423A1.

biological target: T1, human CD3ε/δ-Fc fusion protein (soluble recombinant CD3ε/δ complex) (human, UniProt P04234 22-105); experiment: SPR Biacore, Fab
T1 construct: also called huCD3ε/δ; huCD3; not shown: hinge, CH2, CH3 of human IgG with tag
T1 sequence (chain, as listed by the source mutant, chain 1 of 2): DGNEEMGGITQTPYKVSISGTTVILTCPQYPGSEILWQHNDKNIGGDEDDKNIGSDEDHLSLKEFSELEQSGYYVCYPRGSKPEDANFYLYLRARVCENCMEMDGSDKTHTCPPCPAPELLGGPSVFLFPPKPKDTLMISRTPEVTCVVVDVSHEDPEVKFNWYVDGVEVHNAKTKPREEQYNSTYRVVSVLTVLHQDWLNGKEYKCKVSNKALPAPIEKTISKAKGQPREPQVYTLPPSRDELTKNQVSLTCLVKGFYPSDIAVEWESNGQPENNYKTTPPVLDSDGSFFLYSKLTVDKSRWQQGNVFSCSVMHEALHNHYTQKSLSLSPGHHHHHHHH
T1 sequence (P04234 22-105, stated change not applied, chain 2 of 2): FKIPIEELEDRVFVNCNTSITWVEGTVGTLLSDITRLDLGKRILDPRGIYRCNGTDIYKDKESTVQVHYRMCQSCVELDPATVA
Mark each entry y if its kon sits below 300000 M⁻¹ s⁻¹, and n for all others.

# Binder, Category label
measured = [
    ("humanized 4B4 Fab 4B4_1 (VL1a, VH1B) (Fab, V domains shown, expressed as Fab-fragment) VH: QVQLVETGGGLVKPGQSLKLTCATSGFTFSNAWMHWVRQSPEKGLEWVAQIKARSNNYATYYAVSVKGRFTISRDDSKSTIYLQMNSLTPEDTAIYYCRGTYYASKPFDYWGQGVMVTVSS VL: DVVMTQTPVSLSVSVGGRVSISCRSSQSLVHDNGNTYLSWSLQKPGKSPKVLIYKVSNRFSGVSSRFTGSGSGTDFTLKISSVQPDDLGVYYCGQGTQYPFTFGSGTKLEIK", "n"),
]

Query string: In the record for humanized 4B4 Fab 4B4_6 (VL1a, VH1A) (Fab, V domains shown, expressed as Fab-fragment) VH: QVQLVETGGGLVKPGQSLKLTCATSGFTFSNAWMHWVRQSPEKGLEWVAQIKARSNNYATYYAESVKGRFTISRDDSKSTIYLQMNSLTPEDTAIYYCRGTYYASKPFDYWGQGVMVTVSS VL: DVVMTQTPVSLSVSVGGRVSISCRSSQSLVHDNGNTYLSWSLQKPGKSPKVLIYKVSNRFSGVSSRFTGSGSGTDFTLKISSVQPDDLGVYYCGQGTQYPFTFGSGTKLEIK , is kon less than 300000 M⁻¹ s⁻¹?
Result string: n

Query string: In the record for humanized 4B4 Fab 4B4_2 (VL1b, VH1B) (Fab, V domains shown, expressed as Fab-fragment) VH: QVQLVETGGGLVKPGQSLKLTCATSGFTFSNAWMHWVRQSPEKGLEWVAQIKARSNNYATYYAVSVKGRFTISRDDSKSTIYLQMNSLTPEDTAIYYCRGTYYASKPFDYWGQGVMVTVSS VL: DVVMTQTPVSLSVSVGGRVSISCRSSQSLVHDNANTYLSWSLQKPGKSPKVLIYKVSNRFSGVSSRFTGSGSGTDFTLKISSVQPDDLGVYYCGQGTQYPFTFGSGTKLEIK , is kon less than 300000 M⁻¹ s⁻¹?
Result string: y

Query string: In the record for humanized 4B4 Fab 4B4_9 (VL2B, VH2A) (Fab, V domains shown, expressed as Fab-fragment) VH: EVQLVETGGGLVQPGGSLKLTCATSGFTFSNAWMHWVRQSPEKGLEWVAQIKARSNNYATYYAESVKGRFTISRDDSKSTIYLQMNSLRAEDTAIYYCRGTYYASKPFDYWGQGVMVTVSS VL: DVVMTQTPVSLSVSPGGPVSISCRSSQSLVHDNANTYLSWSLQKPGQSPQVLIYKVSNRFSGVSDRFTGSGSGTDFTLKISRVEPDDLGVYYCGQGTQYPFTFGSGTKLEIK , is kon less than 300000 M⁻¹ s⁻¹?
Result string: y

Query string: In the record for 4B4-D7 Fab (Fab, V domains shown, also called BDW-4B4-D7) VH: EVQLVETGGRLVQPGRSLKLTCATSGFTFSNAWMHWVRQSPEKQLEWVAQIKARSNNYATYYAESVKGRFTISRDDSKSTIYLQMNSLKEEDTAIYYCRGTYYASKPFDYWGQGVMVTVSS VL: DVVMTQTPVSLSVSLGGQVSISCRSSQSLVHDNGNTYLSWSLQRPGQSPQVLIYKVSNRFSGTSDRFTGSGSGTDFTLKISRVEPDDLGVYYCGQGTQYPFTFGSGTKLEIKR , is kon less than 300000 M⁻¹ s⁻¹?
Result string: n

Query string: In the record for humanized 4B4 Fab 4B4_17 (VL2A, VH2B) (Fab, V domains shown, expressed as Fab-fragment) VH: EVQLVETGGGLVQPGGSLKLTCATSGFTFSNAWMHWVRQSPEKGLEWVAQIKARSNNYATYYADSVKGRFTISRDDSKSTIYLQMNSLRAEDTAIYYCRGTYYASKPFDYWGQGVMVTVSS VL: DVVMTQTPVSLSVSPGGPVSISCRSSQSLVHDNGNTYLSWSLQKPGQSPQVLIYKVSNRFSGVSDRFTGSGSGTDFTLKISRVEPDDLGVYYCGQGTQYPFTFGSGTKLEIK , is kon less than 300000 M⁻¹ s⁻¹?
Result string: n
